tested.target: Inadl_5, Q8NI35
Sequence (Q8NI35 673-780): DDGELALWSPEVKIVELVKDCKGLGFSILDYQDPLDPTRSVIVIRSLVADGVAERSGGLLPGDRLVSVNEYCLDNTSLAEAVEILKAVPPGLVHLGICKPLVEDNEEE
assay.details: holdup assay
Set-up: key: below the threshold = too weak to quantify, mostly under pKd 3.1 to 4
condition.details: plain residues with an end cap or a label only (N-terminal biotin on a linker: ado-ado)
property.measured: pKd

Record excerpt, results attached:
> print(dat)
                         binder        readout.value
1    FHSIKQSTAV [CRHR1, P34998]  below the threshold
2    PKSNSSKEYV [CLDN7, O95471]  below the threshold
3  IKLETKKTKL [SLC15A2, Q16348]                 3.48
4   DYSNLRETDI [ADRA1D, P25100]  below the threshold

Q: So what does the record say about pKd for VCMGDHWFDV [PRKN, O60260] ?
Ans: below the threshold
